pIC50: −log10 of the molar value.
# collection of pIC50 values tested on Nonstructural protein 5 (Dengue virus)
Result Type: pIC50

# example entries with known answers
O=C(O)Cc1cccc(OS(=O)(=O)c2ccc(NC(=O)Nc3ccc(C(F)(F)F)cc3[N+](=O)[O-])cc2)c1 4.59
Nc1cc(Cl)ccc1NC(=O)Nc1ccc(S(=O)(=O)Oc2ccc(C(=O)O)cc2)cc1 3.43
Nc1cc(Cl)ccc1NC(=O)Nc1cccc(S(=O)(=O)Nc2ccc(C(=O)O)cc2)c1 3.34
Nc1cc(C(F)(F)F)ccc1NC(=O)Nc1ccc(S(=O)(=O)Oc2cccc(CC(=O)O)c2)cc1 3.56
Nc1cc(C(F)(F)F)ccc1NC(=O)Nc1ccc(S(=O)(=O)Nc2ccc(C(=O)O)cc2)cc1 3.96
Nc1cc(C(F)(F)F)ccc1NC(=O)Nc1cccc(S(=O)(=O)NCc2cccc(C(=O)O)c2)c1 3.52

[I] O=C(Nc1ccc(S(=O)(=O)NCc2cccc(C(=O)O)c2)cc1)Nc1ccc(C(F)(F)F)cc1[N+](=O)[O-]
[II] O=C(Nc1cccc(S(=O)(=O)NCc2cccc(C(=O)O)c2)c1)Nc1ccc(C(F)(F)F)cc1[N+](=O)[O-]
Ask: // returns I or II , whichever has the lower pIC50 // respond with label for picked entry
Result: II
(II: 3.40, I: 3.84)

###

# collection of IC50 values tested on Genome polyprotein (Zika virus, UniProt Q32ZE1)
# Sequence (Q32ZE1 2517-3419 limits assumed): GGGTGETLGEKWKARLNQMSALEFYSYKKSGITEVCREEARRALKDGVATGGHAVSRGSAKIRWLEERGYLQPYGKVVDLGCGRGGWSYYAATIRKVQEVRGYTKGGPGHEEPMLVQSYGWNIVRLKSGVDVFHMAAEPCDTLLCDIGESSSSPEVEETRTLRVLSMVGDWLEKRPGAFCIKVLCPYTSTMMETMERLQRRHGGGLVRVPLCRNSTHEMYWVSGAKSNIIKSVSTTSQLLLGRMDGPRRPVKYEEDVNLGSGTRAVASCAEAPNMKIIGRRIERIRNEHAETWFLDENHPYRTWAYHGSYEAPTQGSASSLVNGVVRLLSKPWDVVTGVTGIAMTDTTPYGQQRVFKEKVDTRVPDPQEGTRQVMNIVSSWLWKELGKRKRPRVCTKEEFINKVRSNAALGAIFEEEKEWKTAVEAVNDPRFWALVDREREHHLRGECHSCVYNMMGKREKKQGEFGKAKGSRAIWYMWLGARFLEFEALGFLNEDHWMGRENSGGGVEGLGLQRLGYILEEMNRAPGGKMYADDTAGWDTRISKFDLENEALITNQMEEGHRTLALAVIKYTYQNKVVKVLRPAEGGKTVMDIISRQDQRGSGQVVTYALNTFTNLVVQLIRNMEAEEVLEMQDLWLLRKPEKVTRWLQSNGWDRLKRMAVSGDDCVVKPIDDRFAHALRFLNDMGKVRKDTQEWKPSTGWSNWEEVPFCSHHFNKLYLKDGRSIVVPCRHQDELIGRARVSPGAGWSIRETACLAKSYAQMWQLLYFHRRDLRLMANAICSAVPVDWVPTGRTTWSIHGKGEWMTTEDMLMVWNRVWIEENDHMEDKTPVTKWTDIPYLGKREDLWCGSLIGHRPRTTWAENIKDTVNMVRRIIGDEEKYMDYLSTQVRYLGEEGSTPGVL
Result Type: IC50 (µM)

# example entries with known answers
Nc1cc(C(F)(F)F)ccc1NC(=O)Nc1cccc(S(=O)(=O)Nc2ccc(C(=O)O)cc2)c1 24
Nc1cc(C(F)(F)F)ccc1NC(=O)Nc1cccc(S(=O)(=O)Nc2ccc(CC(=O)O)cc2)c1 135
Nc1cc(Cl)ccc1NC(=O)Nc1ccc(S(=O)(=O)Nc2ccc(C(=O)O)cc2)cc1 87
O=C(O)Cc1ccc(NS(=O)(=O)c2cccc(NC(=O)Nc3ccc(C(F)(F)F)cc3[N+](=O)[O-])c2)cc1 185
Nc1cc(C(F)(F)F)ccc1NC(=O)Nc1cccc(S(=O)(=O)NCCCC(=O)O)c1 132

[I] Nc1cc(Cl)ccc1NC(=O)Nc1ccc(S(=O)(=O)Oc2ccc(C(=O)O)cc2)cc1
[II] COC(=O)CCCNS(=O)(=O)c1cccc(NC(=O)Nc2ccc(C(F)(F)F)cc2[N+](=O)[O-])c1
Ask: Between I and II , which one shows the larger IC50 value? // respond with label for picked entry
Result: II
(II: 400 µM, I: 31 µM)

[1] O=C(O)Cc1cccc(OS(=O)(=O)c2ccc(NC(=O)Nc3ccc(C(F)(F)F)cc3[N+](=O)[O-])cc2)c1
[2] Nc1cc(C(F)(F)F)ccc1NC(=O)Nc1ccc(S(=O)(=O)NCc2cccc(C(=O)O)c2)cc1
[3] Nc1cc(C(F)(F)F)ccc1NC(=O)Nc1cccc(S(=O)(=O)NCc2ccc(C(=O)O)cc2)c1
Ask: Ranking field: IC50; order: falling. Put the labels in the requested order and write them down.
Result: 3, 2, 1
(3: 122 µM, 2: 61 µM, 1: 28 µM)

###

Target Under Test: Nonstructural protein 5 (Dengue virus, UniProt V5TFZ2)
Sequence (V5TFZ2 whole entry): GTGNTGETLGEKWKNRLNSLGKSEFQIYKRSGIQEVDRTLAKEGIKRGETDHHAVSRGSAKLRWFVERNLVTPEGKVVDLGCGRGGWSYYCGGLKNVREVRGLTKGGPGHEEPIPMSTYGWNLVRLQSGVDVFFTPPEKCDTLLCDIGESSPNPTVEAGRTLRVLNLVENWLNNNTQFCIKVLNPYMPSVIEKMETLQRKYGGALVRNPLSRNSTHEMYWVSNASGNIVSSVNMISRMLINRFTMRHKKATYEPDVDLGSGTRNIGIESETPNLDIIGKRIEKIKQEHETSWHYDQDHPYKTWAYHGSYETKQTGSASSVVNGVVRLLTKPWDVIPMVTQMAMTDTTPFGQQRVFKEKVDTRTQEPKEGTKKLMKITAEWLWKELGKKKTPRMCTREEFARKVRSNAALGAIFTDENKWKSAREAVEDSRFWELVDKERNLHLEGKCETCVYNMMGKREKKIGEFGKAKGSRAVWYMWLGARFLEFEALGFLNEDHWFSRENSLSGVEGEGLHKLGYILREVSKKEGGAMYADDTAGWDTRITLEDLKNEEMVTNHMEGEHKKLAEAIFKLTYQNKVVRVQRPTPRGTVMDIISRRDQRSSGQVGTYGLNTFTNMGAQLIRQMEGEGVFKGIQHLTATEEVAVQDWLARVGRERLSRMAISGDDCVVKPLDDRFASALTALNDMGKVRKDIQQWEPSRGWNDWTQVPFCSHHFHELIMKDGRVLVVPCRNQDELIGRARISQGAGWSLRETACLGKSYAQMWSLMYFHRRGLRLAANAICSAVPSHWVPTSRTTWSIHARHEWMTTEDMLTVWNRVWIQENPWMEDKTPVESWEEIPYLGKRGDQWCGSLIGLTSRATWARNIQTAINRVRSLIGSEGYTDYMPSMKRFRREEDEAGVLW
pIC50: −log10 of the molar value.
Result Type: pIC50

[a] Nc1cc(C(F)(F)F)ccc1NC(=O)Nc1ccc(S(=O)(=O)Oc2cccc(CC(=O)Oc3cccc(CC(=O)O)c3)c2)cc1
[b] Nc1cc(C(F)(F)F)ccc1NC(=O)Nc1cccc(S(=O)(=O)NCc2ccc(C(=O)O)cc2)c1
[c] O=C(O)Cc1ccc(NS(=O)(=O)c2cccc(NC(=O)Nc3ccc(C(F)(F)F)cc3[N+](=O)[O-])c2)cc1
Ask: Quick favor: sort the compounds up above by pIC50, largest first. Put the labels in the requested order and write them down.
Result: a, c, b
(a: 4.62, c: 3.74, b: 3.44)

###

Method: Cytotoxicity against African green monkey Vero E6 cells
Assay type: cell-based
Experimental Context: chlorocebus sabaeus, Vero E6 cells (Vero C1008)
Reported CC50 values for the following compounds.
Numeric answer only, unit µM assumed.

O=C(Nc1ccc(S(=O)(=O)NCc2cccc(C(=O)O)c2)cc1)Nc1ccc(C(F)(F)F)cc1[N+](=O)[O-] 70

Ask: # CC50 lookup, item O=C(O)Cc1cccc(OS(=O)(=O)c2ccc(NC(=O)Nc3ccc(C(F)(F)F)cc3[N+](=O)[O-])cc2)c1
Result: 37.5

###

pIC50: −log10 of the molar value.
# collection of pIC50 values tested on Genome polyprotein (West Nile virus, UniProt P06935)
# Sequence (P06935 2526-3430 limits assumed): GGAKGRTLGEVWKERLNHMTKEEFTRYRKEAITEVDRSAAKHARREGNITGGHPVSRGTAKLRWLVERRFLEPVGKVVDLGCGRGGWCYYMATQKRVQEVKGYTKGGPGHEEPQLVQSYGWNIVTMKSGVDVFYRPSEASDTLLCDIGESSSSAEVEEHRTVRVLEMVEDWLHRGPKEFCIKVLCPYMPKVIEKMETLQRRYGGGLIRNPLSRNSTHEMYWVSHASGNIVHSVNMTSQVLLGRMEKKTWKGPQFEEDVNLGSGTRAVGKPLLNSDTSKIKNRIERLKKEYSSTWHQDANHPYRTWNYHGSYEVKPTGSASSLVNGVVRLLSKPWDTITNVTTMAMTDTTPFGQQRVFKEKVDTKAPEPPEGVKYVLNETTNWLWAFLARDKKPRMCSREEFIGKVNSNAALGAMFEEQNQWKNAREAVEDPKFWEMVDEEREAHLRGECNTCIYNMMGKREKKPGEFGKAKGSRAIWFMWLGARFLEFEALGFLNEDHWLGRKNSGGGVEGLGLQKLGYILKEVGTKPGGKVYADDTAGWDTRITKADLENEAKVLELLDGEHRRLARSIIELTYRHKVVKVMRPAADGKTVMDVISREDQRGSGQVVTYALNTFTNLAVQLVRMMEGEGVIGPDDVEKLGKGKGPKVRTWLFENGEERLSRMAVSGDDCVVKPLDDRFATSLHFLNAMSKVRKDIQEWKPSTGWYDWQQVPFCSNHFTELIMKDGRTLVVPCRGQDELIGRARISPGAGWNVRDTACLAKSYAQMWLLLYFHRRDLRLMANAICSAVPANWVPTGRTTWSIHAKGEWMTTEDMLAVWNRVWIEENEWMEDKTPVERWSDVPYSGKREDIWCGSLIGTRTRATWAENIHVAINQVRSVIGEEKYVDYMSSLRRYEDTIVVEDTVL

Nc1cc(Cl)ccc1NC(=O)Nc1ccc(S(=O)(=O)Nc2ccc(C(=O)O)cc2)cc1 3.52 to 4.29

Ask: For the record Nc1cc(Cl)ccc1NC(=O)Nc1cccc(S(=O)(=O)Oc2ccc(C(=O)O)cc2)c1 , what value of pIC50 is listed for Genome polyprotein (West Nile virus, UniProt P06935)?
Result: 3.52 to 4.29

Ask: For the record Nc1cc(C(F)(F)F)ccc1NC(=O)Nc1cccc(S(=O)(=O)Nc2ccc(C(=O)O)cc2)c1 , what value of pIC50 is listed for Genome polyprotein (West Nile virus, UniProt P06935)?
Result: 3.52 to 4.29

###

Target Under Test: Nonstructural protein 5 (Dengue virus, UniProt V5TFZ2)
Result Type: IC50 (µM)

[1] CN1CCC(CNS(=O)(=O)c2ccc(NC(=O)Nc3ccc(C(F)(F)F)cc3[N+](=O)[O-])cc2)C1 (stereo not drawn)
[2] Nc1cc(C(F)(F)F)ccc1NC(=O)Nc1ccc(S(=O)(=O)NCc2cccc(C(=O)O)c2)cc1
Ask: Between 1 and 2 , which one shows the larger IC50 value? // respond with label for picked entry
Result: 1
